Where do these numbers come from? They come from the supplement of paper PMC9170038.

Tested on: MS2 coat protein
experiment.description: apparent KD of MS2 coat protein; higher = weaker reporter binding
condition.details: Eterna round: R107; input ligand: theophylline 20 uM
Classify by measured apparent KD of MS2 coat protein: 1.0 if it is equal to or exceeds 30 nM, 0.0 if it is smaller.

sequence.content	class.name
AACCACGAGUCGGCCGCCACUUGCAACUAGUUUCAGAAGCAGAAACAUGAGGAUCACCCAUGUCGAAGGACCGGGACUUUACAGG [theeternabot_sameState_MS2_Trp_B_18]	0.0
UGUAACAUGAGGAUCACCCAUGUGAGUGAUACCAGACUAGUGUUGGUCCCUUGGCAGCACGCUGGGCGAGUGUGUAGUCUAUGCG [Same State - Theophylline A (Freestyle 17)]	1.0
GGAUAGGACAGAAGGAGCGUGAGAUGCAUACCUUCAUUCCUCACAUGAGGAUCACCCAUGUCACAGGUAGGUCGCUGUCCUAUCG [#20 Exclusion - Arginine B]	1.0
ACAUGUUGGUGGUAUCUACGAAGGCGGAAACGAGGACCGGUACGGCCGCCACUCGGCGACAUGAGGAUCACCCAUGUGGUUAAAA [Exclusion - Tryptophan A (Freestyle 5)]	1.0

---

System: MS2 coat protein
experiment.description: apparent KD of MS2 coat protein; designed switch direction (-1 OFF switch, 1 ON switch): -1; higher = weaker reporter binding
condition.details: Eterna round: R95; input ligand: FMN 200 uM
Below, each of the sequences is paired with its reported apparent KD of MS2 coat protein value.
readout.type: apparent KD of MS2 coat protein (nM)

sequence.content	observed
AGUAACUAUCACGAAAGUGAUAGUUACAAAACAGGUGAAACAUGAGGAUCACCCAUGUCCUCAUUUGCUCGUCUUAU [Sensor 3 - 3] (puzzle: Sensor v3, turn-off variant 2)	793
AGAAGUAGUAACCGAUCCUACAUGAGGAUCACCCAUGUAGCGGGACGUGCACGCGAAGCUCGUCAGACUACCAGAUG [salish99_TOv1_r3_024] (puzzle: Sensor v3, turn-off variant 1)	27.2
CUGAGCAGACGAAGAUCCAACAUGAGGAUCACCCAUGUCUCAAAAGCUUUUUGCUUGUCUUAUCCUUCCCUGCUCUC [Isbies] (puzzle: Sensor v3, turn-off variant 1)	14.3
ACGUGAUAUCUGUCGGUGGACAUGAGGAUCACCCAUGUAAGCUUUUUGCCCGUCUUAUAACCCGGUGACAGACCUUC [Orlequla] (puzzle: Sensor v3, turn-off variant 1)	32.4
AGUACUAACACGAAAGUGUUAGUACUGUAGGUUUGUGUUACAUGAGGAUCACCCAUGUCCUCAUAAGCUCGUCUUGU [Mat - Sensor v3 - Turn-off var 2 - D96] (puzzle: Sensor v3, turn-off variant 2)	380
CAAUAACAAGCGAGAUCCUACAUGAGGAUCACCCAUGUGCUCGUCUUAUAAAGUACUAUCACGAAAGUGAUAGUACA [Mat - Sensor v3 - turn-off var 1 - Eli Mod - D63] (puzzle: Sensor v3, turn-off variant 1)	19.6
GCCAGAGCAGGAUAUUCAAUAAUUCACAUGAGGAUCACCCAUGUCCAGCGAAAGCUGGAGGGAGAAGGGCUCUGGC [Fiskers Ex 5 - 2] (puzzle: Exclusion 5)	17.5
AGAAGUAGGAACCGAUCCUACAUGAGGAUCACCCAUGUAGCAAGACGUGCACGCGAAGCUCGUCAGACUACCAGAUG [salish99_TOv1_r3_021] (puzzle: Sensor v3, turn-off variant 1)	558
AAGAAACAUGAGGAUCACCCAUGUGAGGAUAUGUAAAAUAAAAGAAAAGAAAGAAUAAACAGAAGGCACAAAGG [Mat - Mod of Hog D14] (puzzle: Exclusion 1)	69.9
CCGGAAGUACAGGAUAUCGUAACGGAUACGUUACGAGAAGGGUAUACAUGAGGAUCACCCAUGUGUCCUACCGG [Mat - Exclusion 6 - Eli Mod - D95] (puzzle: Exclusion 6)	27.8
